system tested: UniProtKB Q3ZKN1
Sequence (Q3ZKN1 whole entry): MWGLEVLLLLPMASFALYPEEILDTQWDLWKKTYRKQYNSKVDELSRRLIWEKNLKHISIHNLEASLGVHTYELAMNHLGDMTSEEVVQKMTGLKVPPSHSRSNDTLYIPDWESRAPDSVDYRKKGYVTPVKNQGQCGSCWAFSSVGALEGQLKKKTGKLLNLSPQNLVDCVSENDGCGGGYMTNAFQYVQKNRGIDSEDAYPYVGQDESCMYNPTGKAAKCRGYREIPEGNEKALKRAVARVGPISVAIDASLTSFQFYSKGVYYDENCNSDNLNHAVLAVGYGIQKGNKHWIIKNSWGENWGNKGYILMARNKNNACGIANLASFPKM
method: Inhibition of dog recombinant CatK assessed as suppression of enzyme-mediated Z-Phe-Arg-AMC cleavage by QFRET assay
pIC50: −log10 of the molar value.
parameter: pIC50

1. COc1cccc2c3c([nH]c12)CCN(C(=O)[C@@H]1CCCC[C@H]1C(=O)NC1(C#N)CC1)C3	9.10

---

method: Intrinsic clearance in rat hepatocytes assessed as metabolic turnover measured per 10^6 cells
Type: ADME, cell-based, Hepatocyte
condition parameters: read-out: CLH
parameter: hepatocyte CLint (µL/min/1e6 cells)

1) N#CC1(NC(=O)[C@@H]2CCCC[C@H]2C(=O)N2CCc3[nH]c4ccc(F)cc4c3C2)CC1	126
2) CS(=O)(=O)c1ccc2[nH]c3c(c2c1)CN(C(=O)[C@@H]1CCCC[C@H]1C(=O)NC1(C#N)CC1)CC3	3.5
3) COc1ccc2[nH]c3c(c2c1)CN(C(=O)[C@@H]1CCCC[C@H]1C(=O)NC1(C#N)CC1)CC3	20
